Where these numbers come from: patent US20240116985A1

Documented pIC50 across a set of compounds
# TARGET UNDER TEST: full-length beta-Catenin (Uniprot ID P35222) (Homo sapiens, UniProt P35222)
# Construct: 10 nM full-length beta-Catenin (Uniprot ID P35222)
# Sequence (P35222 1-781): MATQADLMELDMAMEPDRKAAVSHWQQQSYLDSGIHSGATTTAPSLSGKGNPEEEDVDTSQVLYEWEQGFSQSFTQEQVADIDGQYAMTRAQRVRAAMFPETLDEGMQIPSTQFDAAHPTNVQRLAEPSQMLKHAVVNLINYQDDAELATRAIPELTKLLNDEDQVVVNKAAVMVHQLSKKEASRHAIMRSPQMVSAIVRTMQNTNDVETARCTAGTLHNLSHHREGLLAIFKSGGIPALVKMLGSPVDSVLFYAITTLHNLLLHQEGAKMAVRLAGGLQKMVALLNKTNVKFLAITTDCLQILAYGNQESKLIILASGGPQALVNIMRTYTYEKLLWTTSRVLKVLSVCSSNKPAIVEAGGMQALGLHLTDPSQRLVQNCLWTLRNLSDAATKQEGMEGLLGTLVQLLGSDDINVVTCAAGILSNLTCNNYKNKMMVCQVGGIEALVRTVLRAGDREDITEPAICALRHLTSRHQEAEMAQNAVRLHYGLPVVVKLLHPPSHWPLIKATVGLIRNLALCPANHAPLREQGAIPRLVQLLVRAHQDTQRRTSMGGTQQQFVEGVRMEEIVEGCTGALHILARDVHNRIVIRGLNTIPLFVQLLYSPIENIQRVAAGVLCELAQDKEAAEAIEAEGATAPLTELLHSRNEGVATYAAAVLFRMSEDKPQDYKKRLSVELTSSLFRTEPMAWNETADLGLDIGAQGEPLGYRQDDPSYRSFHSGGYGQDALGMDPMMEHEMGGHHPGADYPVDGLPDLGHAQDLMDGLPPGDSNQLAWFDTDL
# METHOD: Fluorescence polarization IC50 (beta-catenin / 5FAM-TCF4 10-53 competition)
# Type: binding
# CONDITIONS USED: fluorescence polarization; read-out: beta-Catenin FP IC50
Units for pIC50: none; it is -log10 of a concentration expressed in mol/L.

- COMPOUND: "CNCCCCN(C)C(=O)CC[C@@H]1NC(=O)[C@H](Cc2cccc(C(=O)O)c2)NC(=O)[C@H](CC(=O)O)NC(=O)C2(CCCC=CCCCOC(=O)N3CC[C@@](C(=O)N[C@@H](Cc4ccsc4)C(=O)N[C@@H](Cc4csc5ccccc45)C(=O)N[C@@H](C)C(N)=O)(C3)NC(=O)[C@H](C(C)C)NC(=O)[C@H](Cc3ccccc3)NC(=O)[C@H](C)NC1=O)CCCC=CC[C@]1(CCCN1C(C)=O)C(=O)N[C@@H](CC(=O)O)C(=O)N[C@@H](CC(C)(C)C)C(=O)N2 (some centres unmarked)"
  pIC50: 8.30

Consider now this further compound.
// field: pIC50; key: CC(=O)N1CCC[C@]12CC=CCCCC1(CCCC=CCCCOC(=O)N3CC[C@@](C(=O)N[C@@H](Cc4ccccc4C(F)(F)F)C(=O)N[C@@H](Cc4csc5ccccc45)C(=O)N[C@@H](CC(=O)N4CCOCC4)C(N)=O)(C3)NC(=O)[C@H](CC(C)C)NC(=O)[C@H](Cc3ccccc3)NC(=O)[C@H](C)NC(=O)[C@H](C)NC(=O)[C@H](Cc3cccc(C(=O)O)c3)NC(=O)[C@H](CC(=O)O)NC1=O)NC(=O)[C@H](CC(C)(C)C)NC(=O)[C@H](CC(=O)O)NC2=O (some centres unmarked) ; value = 7.82
